System: HepG2
assay.info: Cytotoxicity against human HepG2 cells assessed as growth inhibition after 48 hrs by Alamar blue assay
Assay type: cell-based
setup.conditions: hepg2, 48 h
So basically: is CC50 under 6 µM? Then 1 (yes). Not under? Then 0 (no).

Query: hey, is CC50 for Cc1cc(C)cc(COc2ccc(N(CCN)C(=O)c3cccnc3Cl)cc2)c1.Cl.Cl lower than 6 µM or not?
Reply: 0 (no)

Query: I'd appreciate it if you could check whether CC(C)c1ccc(COc2ccc(N(CCN)C(=O)c3ccc(F)cc3C(F)(F)F)cc2)cc1.Cl has CC50 smaller than 6 µM.
Reply: 1 (yes)

Query: Is the reported CC50 for NCCN(C(=O)c1ccc(F)cc1C(F)(F)F)c1ccc(Cl)cc1 strictly below 6 µM?
Reply: 0 (no)

Query: Consider NCCN(C(=O)c1ccc(Cl)cc1Cl)c1ccc(OCc2cccc(Cl)c2)cc1 . Does its CC50 lie strictly below 6 µM?
Reply: 1 (yes)

Query: Lab note: confirm whether the reported CC50 for this compound is below 6 µM, equality not counting. compound: Cc1cc(C)cc(COc2ccc(N(CCN)C(=O)c3ccccc3C(F)(F)F)cc2)c1.Cl
Reply: 1 (yes)

Query: Here's an entry: Cl.NCCN(C(=O)c1ccccc1C(F)(F)F)c1ccc(OCc2ccc(Cl)cc2)cc1 . Is its CC50 below 6 µM?
Reply: 1 (yes)

Query: Hello, is CC50 of the following compound strictly smaller than 6 µM? Cl.NCCN(C(=O)c1ccc(Cl)cc1Cl)c1ccc(F)cc1
Reply: 0 (no)

Query: Dear colleague, could you confirm whether CC50 of NCCN(C(=O)c1ccc(Cl)cc1Cl)c1ccc(Cl)cc1 falls below 6 µM? Thanks.
Reply: 0 (no)

Query: Just wondering, is CC50 of Cl.NCCN(C(=O)c1ccc(F)cc1C(F)(F)F)c1ccc(OCc2ccc(Cl)cc2)cc1 below 6 µM?
Reply: 0 (no)

Query: # check: CC50 < 6 µM for NCCN(C(=O)c1c(Cl)cccc1Cl)c1ccc(Cl)cc1
Reply: 0 (no)

---

pIC50 values recorded for Cytochrome P450 3A4 (Homo sapiens, UniProt P08684)
Keep in mind that pIC50 stands for -log10 of concentration in molar terms.

Solved cases (4 shown):
compound.smiles: CC(C)c1ccc(COc2ccc(N(CCN)C(=O)c3cccnc3C(F)(F)F)cc2)cc1.Cl
pIC50: 6.84
--
compound.smiles: CC(C)c1ccc(COc2ccc(N(CCN)C(=O)c3ccc(Cl)cc3Cl)cc2)cc1.Cl
pIC50: 7.82
--
compound.smiles: Cl.NCCN(C(=O)c1ccc(Cl)cc1Cl)c1ccc(F)cc1
pIC50: 7.13
--
compound.smiles: NCCN(C(=O)c1ccc(Cl)cc1Cl)c1ccc(Cl)cc1
pIC50: 7.15

Please look at the following molecule next.
Query: Request - read-out pIC50 | tested on Cytochrome P450 3A4 (Homo sapiens, UniProt P08684) | molecule Cc1cc(C)cc(COc2ccc(N(CCN)C(=O)c3ccc(Cl)cc3Cl)cc2)c1.Cl
Reply: 8.52

---

Test system: Liver
assay.info: Half life in human liver microsomes at 1.5 uM by LC-MS analysis
Assay type: ADME, microsome
Measured t1/2, listed per entry.

These solved cases illustrate the format of a correct answer.
compound.smiles: Cc1cc(C)cc(COc2ccc(N(CCN)C(=O)c3ccccc3C(F)(F)F)cc2)c1.Cl
t1/2: > 1 h
//
compound.smiles: CC(C)c1ccc(COc2ccc(N(CCN)C(=O)c3cccnc3Cl)cc2)cc1.Cl
t1/2: > 1 h
//
compound.smiles: CC(C)c1ccc(COc2ccc(N(CCN)C(=O)c3ccc(F)cc3C(F)(F)F)cc2)cc1.Cl
t1/2: 0.867 h
//
compound.smiles: Cl.NCCN(C(=O)c1ccccc1C(F)(F)F)c1ccc(OCc2ccc(Cl)cc2)cc1
t1/2: > 1 h
//
compound.smiles: Cc1cc(C)cc(COc2ccc(N(CCN)C(=O)c3cccnc3Cl)cc2)c1.Cl.Cl
t1/2: 0.65 h

Query: // lookup t1/2 for Cl.NCCN(C(=O)c1ccc(Cl)cc1Cl)c1ccc(OCc2ccc(Cl)cc2)cc1
Reply: > 1 h

Query: What value of t1/2 has been recorded for this entry: CC(C)c1ccc(COc2ccc(N(CCN)C(=O)c3ccc(Cl)cc3Cl)cc2)cc1.Cl
Reply: > 1 h

Query: Find the recorded t1/2 belonging to Cc1cc(C)cc(COc2ccc(N(CCN)C(=O)c3ccc(Cl)cc3Cl)cc2)c1.Cl and report it.
Reply: > 1 h

Query: Item CC(C)c1ccc(COc2ccc(N(CCN)C(=O)c3cccnc3C(F)(F)F)cc2)cc1.Cl has what recorded t1/2?
Reply: > 1 h

Query: Look up t1/2: Cl.NCCN(C(=O)c1ccc(F)cc1C(F)(F)F)c1ccc(OCc2ccc(Cl)cc2)cc1
Reply: > 1 h
